Tested on: NIH3T3
test-protocol: qHTS assay to identify novel small-molecules to repurpose for Merkel cell carcinoma treatment (AID 1296009); further: nearly all actives have a fitted effect of over 60% in size
condition-description: MCC and control cell lines, CellTiter-Glo viability, 72 h; at 44.8 µM (top of the series) unless noted
Results filed as inconclusive are left out. The source made the active and inactive calls. The call rests on the fitted dose curve; in most records, active means well fitted inhibition curve with a large enough effect; inconclusive means small, poorly fitted or top-dose-only effect; inactive means flat fitted curve, though single readings scatter.

| mol-smiles | outcome |
| --- | --- |
| Cc1ccc(Cl)c(O)c1 | inactive |
| CN1CCN(c2ccc([N+](=O)[O-])c3no[n+]([O-])c23)CC1 | inactive |
| CCc1c(C(=O)C(N)=O)c2c(OCC(=O)O)cccc2n1Cc1ccccc1 | inactive |

---

test-protocol: P-glycoprotein substrates identified in KB-8-5-11 adenocarcinoma cell line, qHTS therapeutic library screen (AID 1346987); further: nearly all actives have a fitted effect of over 65% in size; further: potency means the concentration at half of the fitted maximal effect
condition-description: KB-8-5-11 (P-gp overexpressing) viability, CellTiter-Glo, 72 h; series mostly up to 44.5 µM
Method: The ATP-binding cassette transporters P-glycoprotein (P-gp) is known to limit brain penetration of many chemotherapy drugs. […] All cell lines were plated into 1536-well plates at 500 cells/well in 5 uL media. […] CellTiter-Glo reagent (Promega) was dispensed into the wells, incubated for 5 min and luminescence was read on a ViewLux instrument (Perkin-Elmer). […]
Results filed as inconclusive are left out. Activity calls are given as the source filed them. The call rests on the fitted dose curve; in most records, active means well fitted inhibition curve with a large enough effect; inconclusive means small, poorly fitted or top-dose-only effect; inactive means flat fitted curve, though single readings scatter.
endpoint: Potency

Examples from the recorded data:
| compound | Potency |
| --- | --- |
| CC(C)(O)C=CC(=O)[C@](C)(O)[C@H]1[C@H](O)C[C@]2(C)[C@@H]3CC=C4[C@@H](C=C(O)C(=O)C4(C)C)[C@]3(C)C(=O)C[C@@]12C | 118 nM (active) |
| COC1=C[C@@H]2[C@@H]3Cc4ccc(OC)c(O)c4[C@]2(CCN3C)CC1=O | inactive |
| S=C(SSC(=S)N1CCCCC1)N1CCCCC1 | inactive |
| CC(O)=C(C#N)C(=O)Nc1cc(Br)ccc1Br | inactive |

[in] Look at this compound and give its reported Potency. `CCC1(CCC(C)C)C(=O)NC(=O)NC1=O`
[out] inactive

[in] Same for `O=[N+]([O-])/N=C1\NCCN1Cc1ccc(Cl)nc1`
[out] inactive

[in] Same for `CC(C)[C@]12O[C@@H]1[C@@H]1O[C@]13[C@]1(O[C@H]1C[C@@H]1C4=C(CC[C@@]13C)C(=O)OC4)[C@H]2O`
[out] 1 nM (active)

[in] Same for `O=[N+]([O-])c1ccc([As](=O)(O)O)cc1`
[out] inactive

[in] Same for CC(C)NCC(O)c1ccc([N+](=O)[O-])cc1 (centres undefined)
[out] inactive

[in] Same for `CC1=C(O)C(=O)C=C2C1=CC=C1[C@@]2(C)CC[C@@]2(C)[C@@H]3C[C@](C)(C(=O)O)CC[C@]3(C)CC[C@]12C`
[out] 2960 nM (active)

[in] Same for COc1ccc2c(c1)CN(C)CC2c1ccc(Cl)c(Cl)c1 (centres undefined)
[out] inactive

[in] Same for `CC=C(C)C(=O)N[C@@H](c1ccccc1)[C@@H](O)C(=O)O[C@H]1C[C@@]2(O)[C@@H](OC(=O)c3ccccc3)[C@@H]3[C@]4(OC(C)=O)CO[C@@H]4C[C@H](O)[C@@]3(C)C(=O)[C@H](OC(C)=O)C(=C1C)C2(C)C`
[out] 33.2 nM (active)

[in] Same for `c1cc2ccc3cccc4ccc(c1)c2c34`
[out] inactive

[in] Same for CCOP(=O)(OCC)C(C)NC(=O)N(CCCl)N=O (centres undefined)
[out] inactive

Data provenance: PubChem BioAssay (NCATS)
